# test target: human endothelial lipase (EL) (Homo sapiens, UniProt Q9Y5X9)
# Sequence (Q9Y5X9 21-500): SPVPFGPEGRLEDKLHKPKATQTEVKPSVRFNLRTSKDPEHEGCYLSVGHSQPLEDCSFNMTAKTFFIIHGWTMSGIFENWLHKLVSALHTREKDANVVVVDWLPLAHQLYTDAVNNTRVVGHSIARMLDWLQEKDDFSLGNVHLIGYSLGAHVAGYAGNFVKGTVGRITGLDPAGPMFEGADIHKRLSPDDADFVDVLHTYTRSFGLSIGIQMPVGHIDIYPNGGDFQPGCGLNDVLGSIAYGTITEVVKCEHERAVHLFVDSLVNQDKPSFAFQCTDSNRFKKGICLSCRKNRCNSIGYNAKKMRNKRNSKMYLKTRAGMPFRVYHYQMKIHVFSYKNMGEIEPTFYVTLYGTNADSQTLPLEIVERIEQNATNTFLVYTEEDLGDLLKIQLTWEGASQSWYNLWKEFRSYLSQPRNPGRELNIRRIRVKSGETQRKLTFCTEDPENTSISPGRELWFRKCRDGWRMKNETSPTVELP
# assay: Endothelial Lipase Assay, cell surface lipase activity (human)
# condition description: cells expressing human EL, PLA1 substrate 10 μM, fluorescence reaction rate; several values in a cell are repeat determinations
# Procedure: Endothelial Lipase Assay (Human/Mouse) To assay for cell surface lipase activity, cells expressing human endothelial lipase (EL) or LPL were plated in CellBIND® 384-well plates (Corning, Lowell, Mass.) in 25 μL serum free medium at a density of 2000 cells/well. […] Fluorescence signal was monitored for 30 min at 37° C. on a Safire II plate reader in kinetic mode (60 cycles, kinetic interval: 30 seconds) with an excitation wavelength of 490 nm and an emission wavelength of 515 nm. […]
pIC50: −log10 of the molar value.
Would you mind labelling by pIC50? At or over 6 is label 1, under is label 0.

> print(dat)
                            compound.smiles  discrete.label
1  O=C(CCCCC#Cc1ccccc1)C(=O)NCc1nnc(-c2ccccc2)o1         label 0
2  O=C(CCCCCCc1ccccc1)C(=O)NCc1nnc(-c2ccc(OCc3ccc(F)cc3)cc2)o1         label 1
3  O=C(CCCCCCc1ccccc1)C(=O)NCc1nnc(-c2ccc(NCc3ccccc3)cc2)o1         label 1
4  O=C(CCCCCCc1ccccc1)C(=O)NCc1nnc(-c2ccc(Oc3cccc(Cl)c3)cc2)o1         label 1
5  O=C(CCCCCCc1ccc(F)cc1)C(=O)NCc1nnc(-c2ccc3ccccc3c2)o1         label 1
6  O=C(CCCCCCc1ccccc1)C(=O)NCc1nnc(-c2ccccc2F)o1         label 0

Recorded values, source patent US8476302B2.
